assay: physchem; settings: octanol/water, pH 6.5
Binary classification by logD, with 0.6 as an inclusive lower bound for T; all other cases are F.

Query string: Quick check, logD >= 0.6? CCNC(C)Cc1cccc(C(F)(F)F)c1 (configuration not stated)
Result string: F

Query string: Quick check, logD >= 0.6? Cc1ncsc1CCCl
Result string: T

Query string: Quick check, logD >= 0.6? O=c1[nH]c2ccccc2n1C1CCN(CCCC(c2ccc(F)cc2)c2ccc(F)cc2)CC1 [PIMOZIDE]
Result string: T

Query string: Quick check, logD >= 0.6? O=P1(N(CCCl)CCCl)NCCCO1 (configuration not stated) [CYCLOPHOSPHAMIDE ANHYDROUS]
Result string: T

Query string: Quick check, logD >= 0.6? Cc1nc2n(c(=O)c1CCN1CCC(c3noc4cc(F)ccc34)CC1)CCCC2
Result string: T

Query string: Quick check, logD >= 0.6? O=C1CN=C(c2ccccc2)c2cc([N+](=O)[O-])ccc2N1
Result string: T

Query string: Quick check, logD >= 0.6? O=c1[nH]cc(F)c(=O)[nH]1
Result string: F

* * *

assay: physchem; settings: octanol/water, pH 6.5
I'd appreciate it if you marked entries yes when logD is lower than 2 and no when it is not.

Query string: Consider the molecule CC(C)COCC(CN(Cc1ccccc1)c1ccccc1)N1CCCC1 (stereo not given) . Is its logD strictly less than 2?
Result string: yes

Query string: Consider the molecule CSc1ccc2c(c1)N(CCC1CCCCN1C)c1ccccc1S2 (stereo not given) . Is its logD strictly less than 2?
Result string: no

Query string: Consider the molecule CC(C)(C)NC[C@@H](O)COc1ccccc1C1CCCC1 . Is its logD strictly less than 2?
Result string: yes

Query string: Consider the molecule CC(C)(C)NCC(O)c1cc(Cl)c(N)c(C(F)(F)F)c1 (stereo not given) . Is its logD strictly less than 2?
Result string: yes

Query string: Consider the molecule COc1ccc2[nH]c([S+]([O-])Cc3ncc(C)c(OC)c3C)nc2c1 (stereo not given) . Is its logD strictly less than 2?
Result string: no

Query string: Consider the molecule O=C1OC(c2ccc(O)cc2)(c2ccc(O)cc2)c2ccccc21 . Is its logD strictly less than 2?
Result string: no

Query string: Consider the molecule CNC1(c2ccccc2Cl)CCCCC1=O (stereo not given) . Is its logD strictly less than 2?
Result string: yes

Query string: Consider the molecule NNc1nncc2ccccc12 [HYDRALAZINE] . Is its logD strictly less than 2?
Result string: yes

Query string: Consider the molecule CC(C(=O)O)c1ccc(-c2ccccc2)c(F)c1 (stereo not given) . Is its logD strictly less than 2?
Result string: yes

* * *

conditions: octanol/water
assay.readout: delta logD

Query string: Returns the measured delta logD for the input compound. Input: CCNC(C)Cc1cccc(C(F)(F)F)c1 (stereo not given) [FENFLURAMINE]
Result string: -0.9

Query string: Returns the measured delta logD for the input compound. Input: CN1CCN2c3ccccc3Cc3ccccc3C2C1 (stereo not given) [MIANSERIN]
Result string: -0.52

Query string: Returns the measured delta logD for the input compound. Input: Cc1ncsc1CCCl [CLOMETHIAZOLE]
Result string: 0

Query string: Returns the measured delta logD for the input compound. Input: O=C1CN=C(c2ccccc2Cl)c2cc([N+](=O)[O-])ccc2N1 [CLONAZEPAM]
Result string: 0

Query string: Returns the measured delta logD for the input compound. Input: CC(C)(Sc1cc(C(C)(C)C)c(O)c(C(C)(C)C)c1)Sc1cc(C(C)(C)C)c(O)c(C(C)(C)C)c1 [PROBUCOL]
Result string: 0

Query string: Returns the measured delta logD for the input compound. Input: Cc1nccn1CC1CCc2c(c3ccccc3n2C)C1=O (stereo not given) [ONDANSETRON]
Result string: -0.61

Query string: Returns the measured delta logD for the input compound. Input: O=C(c1ccc(OCCN2CCCCC2)cc1)c1c(-c2ccc(O)cc2)sc2cc(O)ccc12 [RALOXIFENE]
Result string: -0.9

Query string: Returns the measured delta logD for the input compound. Input: NCCc1ccc(O)c(O)c1 [DOPAMINE]
Result string: -0.9

Query string: Returns the measured delta logD for the input compound. Input: Oc1ccc2c3c1O[C@H]1[C@@H](O)CC[C@@]4(O)[C@@H](C2)N(CC2CCC2)CC[C@]314 [NALBUPHINE]
Result string: -0.88

Query string: Returns the measured delta logD for the input compound. Input: C[C@H]1C[C@@H]2[C@H]([C@@H](O)C[C@@]3(C)[C@H]2CC[C@]3(O)C(=O)CO)[C@@]2(C)C=CC(=O)C=C12 [METHYLPREDNISOLONE]
Result string: 0

Query string: Returns the measured delta logD for the input compound. Input: CN(C)CC(Oc1ccccc1)Oc1ccccc1 [MEDIFOXAMINE]
Result string: -0.89

Query string: Returns the measured delta logD for the input compound. Input: Oc1ccc(C(O)C2CCCCN2)cc1O (stereo not given) [RIMITEROL]
Result string: -0.9

Query string: Returns the measured delta logD for the input compound. Input: CCCCCc1cc(O)c2c(c1)OC(C)(C)[C@@H]1CCC(C)=C[C@@H]21 [DRONABINOL]
Result string: 0

Query string: Returns the measured delta logD for the input compound. Input: Nc1nc(N)c2nc(-c3ccccc3)c(N)nc2n1
Result string: -0.15

Query string: Returns the measured delta logD for the input compound. Input: CCOC(=O)c1ncn2c1CN(C)C(=O)c1cc(F)ccc1-2 [FLUMAZENIL]
Result string: -0.14

Query string: Returns the measured delta logD for the input compound. Input: CNS(=O)(=O)Cc1ccc2[nH]cc(CCN(C)C)c2c1
Result string: -0.9

Query string: Returns the measured delta logD for the input compound. Input: C#C[C@]1(O)CC[C@H]2[C@@H]3CCc4cc(O)ccc4[C@H]3CC[C@@]21C [ETHINYL ESTRADIOL]
Result string: 0

Query string: Returns the measured delta logD for the input compound. Input: O=c1[nH]cc(F)c(=O)[nH]1 [FLUOROURACIL]
Result string: 0.1

Query string: Returns the measured delta logD for the input compound. Input: CCC1(c2ccccc2)C(=O)NC(=O)NC1=O [PHENOBARBITAL]
Result string: 0.21

Query string: Returns the measured delta logD for the input compound. Input: COCCOC(=O)C1=C(C)NC(C)=C(C(=O)OC(C)C)C1c1cccc([N+](=O)[O-])c1 (stereo not given) [NIMODIPINE]
Result string: 0
